Exercise: for every item that follows, state its recorded cytotoxicity at 10 µM.
- assay.overview: Toxicity liver stage against HepG2, at 10uM
- Format: cell-based
- Parameters: test concentration 10 uM, cell line HepG2-A16-CD81EGFP
- conditions: human, HepG2-A16-CD81EGFP cells; read-out: INHIBITION
Include the unit after the number when you answer.

Before answering, review these 5 worked examples.
CS(=O)(=O)NCc1nnc2n1CCN(CC1CC1)C2 = -0.285%
COc1ccc(CN2CCOC3(CCCN(c4nnc(C)o4)C3)C2)cc1 (stereo unspecified) = -23.6%
CCOCC(=O)N1Cc2cnc(-c3ccccc3)nc2C1 = -1.08%
COCCN1CCC(CNC(=O)C2(c3cc(C)cc(C)c3)CCC2)C1 (stereo unspecified) = -7.4%
C=c1ccoc1=C1NN=C(CNC2CCCN(c3cccnn3)C2)O1 (stereo unspecified) = -9.48%

Respectfully, I request cytotoxicity at 10 µM for each entry included below.
1. Cc1nc2sccn2c1CN(CCCN(C)C)Cc1ccccn1
2. CCCC(=O)Nc1ccc(CC(=O)N(C)CCc2cn[nH]c2)cc1
3. CCN1CCC(NC(=O)NC2CCOc3ccc(Br)cc32)CC1 (stereo unspecified)
4. CN1CC[C@H]2OCC[C@@H](C(=O)NCc3ccco3)[C@@H]2C1

Response line:
1: 3.38%; 2: 4.84%; 3: -1.15%; 4: -78%

For every item below, please supply its cytotoxicity at 10 µM.
1. Cc1cc(C2CCCN(C(=O)COc3cccc(F)c3)C2)n[nH]1 (stereo unspecified)
2. Cc1ccc(N2CCO[C@H]3CN(Cc4ccccn4)C[C@H]32)nn1

Response line:
["5.95%", "-79.8%"]

====

- assay.overview: Toxicity liver stage against HepG2, at 10uM
- Assay type: cell-based
- Set-up: test concentration 10 uM, cell line HepG2-A16-CD81EGFP
- conditions: human, HepG2-A16-CD81EGFP cells; read-out: INHIBITION
measure.name: cytotoxicity at 10 µM (%)
Give bare numbers, in %.

CC(C)N1[C@H](Cn2cncn2)C[C@@H]2CN(Cc3cccs3)CC[C@@H]21 = -109
CN(C)C(=O)N1CCC(C(=O)NCCNc2ncccc2C#N)CC1 = 18.3
CC(C)C1CN(Cc2nccn2C(C)C)CCC(=O)N1CC1CC1 (stereo unspecified) = -11
CCn1c(=O)nc(N)c2c(-c3ccc(OC)cc3)csc21 = -32.8
O=C1NCC2(CCCN(Cc3ccccc3OCCO)C2)O1 (stereo unspecified) = -39.2

Prompt line: Let me know recorded cytotoxicity at 10 µM for CC(C)C(C)N(C)Cc1nnc(-c2ccco2)o1 (stereo unspecified) , thanks.
Response line: 2.65

====

- assay.overview: Toxicity liver stage against HepG2, at 10uM
- Type: cell-based
- Parameters: test concentration 10 uM, cell line HepG2-A16-CD81EGFP
- conditions: human, HepG2-A16-CD81EGFP cells; read-out: INHIBITION
measure.name: cytotoxicity at 10 µM (%)
Answers are plain numbers, in %.

Examples from the recorded data:
O=C(CN1CCN(c2nccs2)CC1)Nc1cccnc1 = -4.23
CCS(=O)(=O)N1CCC2(CC1)CN(c1ccsc1)C(=O)CO2 = -73.7
O=C(c1ccco1)N1CCCC2(CN(Cc3cccs3)CCO2)C1 (stereo unspecified) = -2.3
O=C(NC1CCS(=O)(=O)c2ccccc21)c1cccs1 (stereo unspecified) = -0.0399
Cc1nc(-c2cnn(C)c2)nc2c1CN(C(=O)c1cccn1C)CC2 = 4.87

Prompt line: Please supply the value of reported cytotoxicity at 10 µM for the item COCc1noc(CN2C(=O)OC[C@@H]2C(C)C)n1
Response line: -11.8
